experiment: Solubility of RAPA in the drug solvent of the stock solution; type: physicochemical; details: organic solvent or mixture; drug solvent of two or more solvents (absolute ethanol and latent solvent)
OUTCOME_MEASURE: solubility

Query: For the compound shown here, CO[C@H]1C[C@@H]2CC[C@@H](C)[C@@](O)(O2)C(=O)C(=O)N2CCCC[C@H]2C(=O)O[C@H]([C@H](C)C[C@@H]2CC[C@@H](O)[C@H](OC)C2)CC(=O)[C@H](C)/C=C(\C)[C@@H](O)[C@@H](OC)C(=O)[C@H](C)C[C@H](C)/C=C/C=C/C=C/1C , give the reported solubility.
Reply: ≤ 60 mg/mL
